target: TPR domain of AtToc64 with a C-terminal hexa-histidine tag (AtToc64_TPR-H6) (Arabidopsis thaliana); assay: ITC; peptide (6-14 mM) titrated into AtToc64_TPR-H6 (0.1-0.3 mM) in the cell, VP-ITC, 20°C, 25 mM Hepes, 100 mM KCl, pH 7.3; 1:1 model, stoichiometry fixed at N = 1 for the alanine scan
A collection of substances and their measured pKd
In plain terms, pKd is the concentration in mol/L turned into minus its base-10 logarithm.

Use the examples below as a reference point.
substance	pKd
Hsp90 C-terminal octapeptide, alanine mutant TSRAEEVD	2.97
Hsp70 C-terminal octapeptide, alanine mutant GATIEEVD	3.18
Hsp90 C-terminal octapeptide, alanine mutant TARMEEVD	3.46
Hsp70 C-terminal octapeptide, alanine mutant APTIEEVD	3.13
Hsp90 C-terminal octapeptide, alanine mutant ASRMEEVD	3.07

input: pKd lookup needed for Hsp70 C-terminal octapeptide, alanine mutant GPAIEEVD , thanks.
output: 3.11

input: Can you look up the measured pKd of Hsp90 C-terminal octapeptide, alanine mutant TSAMEEVD for me?
output: 4.00

====

molecular target: TPR domain of AtToc64 (AtToc64_TPR-H6) (Arabidopsis thaliana); construct: The region encompassing the TPR domain of AtToc64 was composed of residues 474–589; made in house; host or cells: E. coli BL21(DE3); test: biochemical; format: binding; conditions: ITC alanine scanning, Table S1, stoichiometry fixed at N = 1, 20°C
Sequence (Q9LVH5 474-589): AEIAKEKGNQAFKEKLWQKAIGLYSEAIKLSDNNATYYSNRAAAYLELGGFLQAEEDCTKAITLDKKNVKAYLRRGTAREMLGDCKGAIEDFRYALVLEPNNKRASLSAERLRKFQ
readout.type: Kd

sequence.text	observed.result
GPTIEEVA [Ala-substituted Hsp70 octapeptide]	No binding
GPTIEEAD [Ala-substituted Hsp70 octapeptide]	No binding
GPTIEAVD [Ala-substituted Hsp70 octapeptide]	No binding
